Catalogue of molecules with associated IC50
test system: 817829-284-R-J1-PDC complex spheroids, viability; assay: Anticancer human tumor 817829-284-R-J1-PDC patient-derived colon adenocarcinoma cell line growth inhibition [CLK]; conditions: curve of first compound; second compound 0.1 µM;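 note: spheroids exposed to the agents for seven days before readout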

{"molecule": "Cn1ncnc1[C@H]1c2n[nH]c(=O)c3cc(F)cc(c23)N[C@@H]1c1ccc(F)cc1 + CNC(=O)c1ccc(Nc2nc(OC3CCCC3)c3c(-c4ccc5nc(C)oc5c4)c[nH]c3n2)c(OC)c1", "IC50": "< 0.316 nM"}
{"molecule": "CC(CO)NC(=O)c1cc(-c2ccc(Cl)cc2)nn(-c2cnn(C)c2)c1=O (stereo not drawn) + CN1CCN(c2cc(C(=O)Nc3cc4cc(-c5cnn(C)c5)ccc4cn3)ccn2)CC1", "IC50": "< 31.6 nM"}
{"molecule": "C=C(F)C(=O)N1CCN(c2nc(OCC3CCCN3C)nc3c2CCN(c2cccc4cccc(Cl)c24)C3)CC1CC#N (stereo not drawn) + CN1CCN(c2cc(C(=O)Nc3cc4cc(-c5cnn(C)c5)ccc4cn3)ccn2)CC1", "IC50": "< 31.6 nM"}
